- Measurement protocol: in vivo
- Test context: mouse, po, 20 mg/kg
Reported endpoint: AUC(0-t) at 8 h (ng·h/mL)

{"columns": ["Compound", "Unit label", "Recorded result"],
 "data": [
  ["CCN1CC/C(=C\\F)[C@](C)(COc2nc(N3Cc4c(COC)c(C(=O)N(C)C)nn4CC[C@@H]3C)c3cc(C(F)(F)F)c(-c4c(F)ccc5sc(N)c(C#N)c45)c(F)c3n2)C1 (single isomer, unassigned) [Example 232A]", "ng·h/mL", 1520]
]}

###

- Measurement protocol: Pharmacokinetics in mice
- Test context: mouse, plasma, po, 10 mg/kg
Reported endpoint: AUC(0-t) at 8 h

{"columns": ["Compound", "Recorded result"],
 "data": [
  ["CCN1CC/C(=C\\F)[C@](C)(COc2nc(N3Cc4cc(C(C)=O)nn4CC[C@@H]3C)c3cc(Cl)c(-c4c(F)ccc5sc(N)c(C#N)c45)c(F)c3n2)C1 (single isomer, unassigned) [Example 268A]", "907 ng·h/mL"],
  ["CCN1CC/C(=C\\F)[C@](C)(COc2nc(N3Cc4cc(C(=O)N(C)C)nn4CC[C@@H]3C)c3cc(Cl)c(-c4c(F)ccc5sc(N)c(C#N)c45)c(C)c3n2)C1 (single isomer, unassigned) [Example 178A]", "1190 ng·h/mL"]
]}

###

- Tested on: human lung cancer cells NCI-H441 with KRAS-G12V mutation
- Measurement protocol: Antitumor effect in NCI-H441 subcutaneous xenograft model
- Type: in vivo, NU/NU mice
- Test context: 20 mpk, PO, BID×17
API: label(entry) gives rule met if the entry's Tumor volume (mm^3) (day 16) is strictly smaller than 300 mm^3; on equality or larger values it gives rule not met.

{"columns": ["Compound", "Label value"],
 "data": [
  ["[2H]C([2H])([2H])N1CCC(=CF)C(C)(COc2nc(N3CCCn4nc(C(=O)N(C)C)c(Cl)c4C3)c3cc(CC)c(-c4c(F)ccc5sc(N)c(C#N)c45)c(F)c3n2)C1 (atropisomer, axis not shown) [Example 265A]", "rule not met"],
  ["[2H]C([2H])([2H])N1CC/C(=C\\F)[C@](C)(COc2nc(N3Cc4cc(C(=O)N(C)C)nn4CC[C@@H]3C)c3cc(C(F)(F)F)c(-c4c(F)ccc5sc(N)c(C#N)c45)c(F)c3n2)C1 (single isomer, unassigned) [Example 247A]", "rule met"],
  ["CCc1cc2c(N3Cc4cc(C(=O)N(C)C)nn4CC[C@@H]3C)nc(OC[C@]3(C)CN(CC)CC/C3=C\\F)nc2c(F)c1-c1c(F)ccc2sc(N)c(C#N)c12 (single isomer, unassigned) [Example 175A]", "rule met"],
  ["[2H]C([2H])([2H])N1CCC(=CF)C(C)(COc2nc(N3Cc4cc(C(=O)N(C)C)nn4CCC3C)c3cc(Cl)c(-c4c(F)ccc5sc(N)c(C#N)c45)c(F)c3n2)C1 (centres unmarked) [Example 255A]", "rule met"]
]}

###

- Measurement protocol: Pharmacokinetics in mice
- Test context: mouse, plasma, po, 20 mg/kg
The following molecules are listed with their measured AUC(0-t) at 8 h values.
Reported endpoint: AUC(0-t) at 8 h (ng·h/mL)

{"columns": ["Molecule", "Unit label", "Recorded result"],
 "data": [
  ["[2H]C([2H])([2H])N(C(=O)c1nn2c(c1COC)CN(c1nc(OC([2H])([2H])[C@]3(C)CN(CC)CC/C3=C\\F)nc3c(F)c(-c4c(F)ccc5sc(N)c(C#N)c45)c(Cl)cc13)[C@@H](C)CC2)C([2H])([2H])[2H] (single isomer, unassigned) [Example 235A]", "ng·h/mL", 2990],
  ["CCOc1c(C(=O)N(C)C)nn2c1CN(c1nc(OC[C@]3(C)CN(CC)CC/C3=C\\F)nc3c(F)c(-c4c(F)ccc5sc(N)c(C#N)c45)c(Cl)cc13)[C@@H](C)CC2 (single isomer, unassigned) [Example 236A]", "ng·h/mL", 2820],
  ["CCN1CC/C(=C\\F)[C@](C)(COc2nc(N3Cc4cc(C(=O)N(C)C)nn4CC[C@@H]3C)c3cc(Cl)c(-c4c(F)ccc5sc(N)c(C#N)c45)c(F)c3n2)C1 (atropisomer, axis not shown) [Example 246A]", "ng·h/mL", 1040],
  ["[2H]C([2H])([2H])C([2H])([2H])N1CC/C(=C\\F)[C@](C)(COc2nc(N3Cc4c(COC)c(C(=O)N(C)C)nn4CC[C@@H]3C)c3cc(Cl)c(-c4c(F)ccc5sc(N)c(C#N)c45)c(F)c3n2)C1 (atropisomer, axis not shown) [Example 243A]", "ng·h/mL", 9960],
  ["CCN1CC/C(=C\\F)[C@](C)(COc2nc(N3Cc4c(COC)c(C(=O)N(C)C)nn4CC[C@@H]3C)c3cc(Cl)c(-c4c(F)cc(F)c5sc(N)c(C#N)c45)c(F)c3n2)C1 (single isomer, unassigned) [Example 237A]", "ng·h/mL", 3910],
  ["CCN1CC/C(=C\\F)[C@](C)(COc2nc(N3CCCn4nc(C(=O)N(C)C)c(Cl)c4C3)c3cc(Cl)c(-c4c(F)ccc5sc(N)c(C#N)c45)c(F)c3n2)C1 (single isomer, unassigned) [Example 256A]", "ng·h/mL", 1380],
  ["CCN1CCC(C(F)F)C(C)(COc2nc(N3Cc4c(COC)c(C(=O)N(C)C)nn4CCC3C)c3cc(Cl)c(-c4c(F)ccc5sc(N)c(C#N)c45)c(F)c3n2)C1 (stereo not shown) [Example 251A]", "ng·h/mL", 1960],
  ["CCN1CC/C(=C\\F)[C@](C)(COc2nc(N3Cc4c(COC)c(C(=O)N(C)C)nn4CC[C@@H]3C)c3cc(Cl)c(-c4c(F)ccc5sc(N)c(C#N)c45)c(C(F)F)c3n2)C1 (atropisomer, axis not shown) [Example 241A]", "ng·h/mL", 1660],
  ["[2H]C([2H])([2H])N1CC/C(=C\\F)[C@](C)(COc2nc(N3Cc4c(COC)c(C(=O)N(C)C)nn4CC[C@@H]3C)c3cc(CC)c(-c4c(F)ccc5sc(N)c(C#N)c45)c(F)c3n2)C1 (single isomer, unassigned) [Example 258A]", "ng·h/mL", 1320],
  ["CC[C@H]1CCn2nc(C(=O)N(C)C)c(COC)c2CN1c1nc(OC[C@]2(C)CN(CC)CC/C2=C\\F)nc2c(F)c(-c3c(F)ccc4sc(N)c(C#N)c34)c(Cl)cc12 (single isomer, unassigned) [Example 240A]", "ng·h/mL", 2920]
]}

###

- Measurement protocol: Pharmacokinetics in mice
- Test context: mouse, in vivo, po, 20 mg/kg
Reported endpoint: AUC(0-t) at 8 h (ng·h/mL)

{"columns": ["Compound", "Recorded result"],
 "data": [
  ["CCN1CC/C(=C\\F)[C@](C)(COc2nc(N3Cc4c(COC)c(C(=O)N(C)C)nn4CC[C@@H]3C)c3cc(Cl)c(-c4c(F)ccc5sc(N)c(C#N)c45)c(F)c3n2)C1 (single isomer, unassigned) [Example 228A]", 4130],
  ["CCN1CC/C(=C\\F)[C@](C)(COc2nc(N3Cc4c(O)c(C(=O)N(C)C)nn4CC[C@@H]3C)c3cc(Cl)c(-c4c(F)ccc5sc(N)c(C#N)c45)c(F)c3n2)C1 (single isomer, unassigned) [Example 233A]", 822],
  ["CCN1CC/C(=C\\F)[C@](C)(COc2nc(N3Cc4c(COC)c(C(=O)N(C)C)nn4CC[C@@H]3C)c3cc(Cl)c(-c4c(F)ccc5sc(N)c(C#N)c45)c(C)c3n2)C1 (single isomer, unassigned) [Example 229A]", 4490],
  ["[2H]C([2H])([2H])C([2H])([2H])N1CC/C(=C\\F)[C@](C)(COc2nc(N3Cc4c(COC)c(C(=O)N(C)C)nn4CC[C@@H]3C)c3cc(Cl)c(-c4c(F)ccc5sc(N)c(C#N)c45)c(C)c3n2)C1 (atropisomer, axis not shown) [Example 249A]", 5360]
]}

###

- Test system: KRAS G12D mutant AGS cells
- Measurement protocol: Proliferation inhibition of AGS cells, CellTiter-Glo assay
- Assay type: cell-based, human
- Test context: 3 days, CTG; read-out: AGS IC50/nM

{"columns": ["Compound", "Limit operator", "IC50 (nM)"],
 "data": [
  ["CN1CC[C@H](C(F)F)[C@](C)(COc2nc(N3CCOC[C@@](C)(O)C3)c3cc([N+](=O)[O-])c(-c4cccc5sc(N)c(C#N)c45)c(F)c3n2)C1 (atropisomer, axis not shown; (Ra)) [Example 86A]", "=", 4.9],
  ["CN1CC/C(=C\\F)[C@](C)(COc2nc(N3CCCn4nc(C(=O)N(C)C)c(Cl)c4C3)c3cc(C4CC4)c(-c4c(F)ccc5sc(N)c(C#N)c45)c(F)c3n2)C1 (single isomer, unassigned) [Example 161A]", "=", 2.4],
  ["CN1CC/C(=C\\F)[C@](C)(COc2nc(N3CCCn4nc(C(=O)N(C)C)c(Cl)c4C3)c3cc(C4CC4)c(-c4c(F)ccc5sc(N)c(C#N)c45)c(F)c3n2)C1 (single isomer, unassigned) [Example 161B]", "=", 33.5],
  ["CN1CC/C(=C\\F)[C@](C)(COc2nc(N3CCCn4nc(C(=O)N(C)C)cc4C3)c3cc(Cl)c(-c4c(F)ccc5sc(N)c(C#N)c45)c(F)c3n2)C1 (atropisomer, axis not shown; (Sa)) [Example 93B]", "=", 178],
  ["CN1CC/C(=C\\F)[C@](C)(COc2nc(N3CCCn4nc(C(=O)N(C)C)cc4C3)c3cc(Cl)c(-c4c(F)ccc5sc(N)c(C#N)c45)c(F)c3n2)C1 (atropisomer, axis not shown; (Ra)) [Example 93A]", "<", 1.5]
]}
